tested-on: rGAPDH (Oryctolagus cuniculus, UniProt P46406)
Sequence (P46406 2-333 limits assumed): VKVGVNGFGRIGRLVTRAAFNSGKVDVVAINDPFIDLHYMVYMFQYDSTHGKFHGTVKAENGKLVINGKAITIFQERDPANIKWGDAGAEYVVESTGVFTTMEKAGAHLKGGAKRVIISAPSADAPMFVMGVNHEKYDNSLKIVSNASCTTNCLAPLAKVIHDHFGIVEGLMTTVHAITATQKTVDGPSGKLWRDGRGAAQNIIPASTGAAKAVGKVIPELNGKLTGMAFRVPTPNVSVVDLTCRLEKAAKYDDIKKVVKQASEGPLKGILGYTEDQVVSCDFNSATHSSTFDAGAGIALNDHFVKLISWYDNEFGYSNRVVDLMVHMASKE
measurement-notes: Spectrophotometric titration of GAPDH with hemin
Assay type: binding, rabbit
setup-conditions: read-out: Kd (direct); Wild type rGAPDH
quantity-measured: pKd
Answers are plain numbers, as −log10 of the molar value.

IN: # lookup: pKd of C=CC1=C(C)c2cc3[n-]c(cc4[n-]c(cc5nc(cc1n2)C(C)=C5C=C)c(C)c4CCC(=O)O)c(CCC(=O)O)c3C.[Cl-].[Fe+3] [hemin, Fe(III)-protoporphyrin IX]
OUT: 7.62

---

tested-on: rGAPDH (Oryctolagus cuniculus)
measurement-notes: Kinetics of heme transfer from GAPDH to apo-myoglobin, koff
Type: binding, rabbit
setup-conditions: read-out: approximate affinities from koff/kon; ferric heme, 10 °C
quantity-measured: Kd

IN: # lookup: Kd of "C=CC1=C(C)c2cc3[n-]c(cc4[n-]c(cc5nc(cc1n2)C(C)=C5C=C)c(C)c4CCC(=O)O)c(CCC(=O)O)c3C.[Cl-].[Fe+3]"
OUT: 19 to 390 nM
